B1: HDV Ribozyme (parent)
chain: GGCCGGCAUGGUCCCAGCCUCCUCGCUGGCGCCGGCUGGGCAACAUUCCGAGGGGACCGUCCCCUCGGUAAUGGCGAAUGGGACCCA

variants of: B1; assay: self-cleavage, relative activity (ratio to wild type); higher = more cleavage; co-transcriptional
Mark satisfied for reported self-cleavage of 0.1 or greater; mark not satisfied for anything smaller.

Q: Is reported self-cleavage greater than or equal to 0.1 here: G17U C58G
Ans: satisfied

Q: Is reported self-cleavage greater than or equal to 0.1 here: C15A A78C
Ans: not satisfied

Q: Is reported self-cleavage greater than or equal to 0.1 here: C24A G55A
Ans: satisfied

Q: Is reported self-cleavage greater than or equal to 0.1 here: C14A C49A
Ans: satisfied

Q: Is reported self-cleavage greater than or equal to 0.1 here: U27C G38C
Ans: satisfied

Q: Is reported self-cleavage greater than or equal to 0.1 here: G34C G82C
Ans: satisfied

Q: Is reported self-cleavage greater than or equal to 0.1 here: G52C G82A
Ans: satisfied

Q: Is reported self-cleavage greater than or equal to 0.1 here: G55C C57A
Ans: satisfied

Q: Is reported self-cleavage greater than or equal to 0.1 here: A43U A87U
Ans: satisfied

Q: Is reported self-cleavage greater than or equal to 0.1 here: A8U U79G
Ans: satisfied

Q: Is reported self-cleavage greater than or equal to 0.1 here: G1A C86A
Ans: satisfied

Q: Is reported self-cleavage greater than or equal to 0.1 here: G5U C48U
Ans: satisfied

Q: Is reported self-cleavage greater than or equal to 0.1 here: C32A U46G
Ans: satisfied

Q: Is reported self-cleavage greater than or equal to 0.1 here: G2U U60C
Ans: not satisfied

Q: Is reported self-cleavage greater than or equal to 0.1 here: U37A C61A
Ans: satisfied

Q: Is reported self-cleavage greater than or equal to 0.1 here: G1C G40C
Ans: not satisfied

Q: Is reported self-cleavage greater than or equal to 0.1 here: G38C A51U
Ans: satisfied

Q: Is reported self-cleavage greater than or equal to 0.1 here: G6C C62A
Ans: satisfied

Q: Is reported self-cleavage greater than or equal to 0.1 here: C32G G80C
Ans: not satisfied

Q: Is reported self-cleavage greater than or equal to 0.1 here: C15G C48G
Ans: satisfied

Q: Is reported self-cleavage greater than or equal to 0.1 here: G1U C58G
Ans: satisfied

Q: Is reported self-cleavage greater than or equal to 0.1 here: U12G U27G
Ans: satisfied

Q: Is reported self-cleavage greater than or equal to 0.1 here: G17A A56U
Ans: satisfied

Q: Is reported self-cleavage greater than or equal to 0.1 here: C3A G50A
Ans: satisfied

Q: Is reported self-cleavage greater than or equal to 0.1 here: C41A C63G
Ans: satisfied

Q: Is reported self-cleavage greater than or equal to 0.1 here: G6U C63A
Ans: satisfied

Q: Is reported self-cleavage greater than or equal to 0.1 here: G11U C24G
Ans: not satisfied

Q: Is reported self-cleavage greater than or equal to 0.1 here: C61U C85U
Ans: satisfied

Q: Is reported self-cleavage greater than or equal to 0.1 here: U46A C58A
Ans: satisfied

Q: Is reported self-cleavage greater than or equal to 0.1 here: C4A G35U
Ans: not satisfied

Q: Is reported self-cleavage greater than or equal to 0.1 here: C3A A45U
Ans: satisfied

Q: Is reported self-cleavage greater than or equal to 0.1 here: G2U U12G
Ans: not satisfied

Q: Is reported self-cleavage greater than or equal to 0.1 here: C4A G11U
Ans: not satisfied

Q: Is reported self-cleavage greater than or equal to 0.1 here: G38U C63A
Ans: satisfied

Q: Is reported self-cleavage greater than or equal to 0.1 here: G52C C58A
Ans: satisfied

Q: Is reported self-cleavage greater than or equal to 0.1 here: U69G A77U
Ans: satisfied

Q: Is reported self-cleavage greater than or equal to 0.1 here: C48G C84A
Ans: satisfied

Q: Is reported self-cleavage greater than or equal to 0.1 here: U9G C75G
Ans: not satisfied

Q: Is reported self-cleavage greater than or equal to 0.1 here: A16C C22A
Ans: not satisfied

Q: Is reported self-cleavage greater than or equal to 0.1 here: C22U U47G
Ans: satisfied

Q: Is reported self-cleavage greater than or equal to 0.1 here: U12A G50A
Ans: satisfied

Q: Is reported self-cleavage greater than or equal to 0.1 here: C21U A71G
Ans: satisfied

Q: Is reported self-cleavage greater than or equal to 0.1 here: A42U U60C
Ans: satisfied

Q: Is reported self-cleavage greater than or equal to 0.1 here: G17C C61A
Ans: satisfied

Q: Is reported self-cleavage greater than or equal to 0.1 here: G6A U47C
Ans: satisfied

Q: Is reported self-cleavage greater than or equal to 0.1 here: C24A C61A
Ans: satisfied
